These entries and their values trace back to paper PMC6407917.

Target: UniProt:Q9UBE8
Sequence (Q9UBE8 1-527): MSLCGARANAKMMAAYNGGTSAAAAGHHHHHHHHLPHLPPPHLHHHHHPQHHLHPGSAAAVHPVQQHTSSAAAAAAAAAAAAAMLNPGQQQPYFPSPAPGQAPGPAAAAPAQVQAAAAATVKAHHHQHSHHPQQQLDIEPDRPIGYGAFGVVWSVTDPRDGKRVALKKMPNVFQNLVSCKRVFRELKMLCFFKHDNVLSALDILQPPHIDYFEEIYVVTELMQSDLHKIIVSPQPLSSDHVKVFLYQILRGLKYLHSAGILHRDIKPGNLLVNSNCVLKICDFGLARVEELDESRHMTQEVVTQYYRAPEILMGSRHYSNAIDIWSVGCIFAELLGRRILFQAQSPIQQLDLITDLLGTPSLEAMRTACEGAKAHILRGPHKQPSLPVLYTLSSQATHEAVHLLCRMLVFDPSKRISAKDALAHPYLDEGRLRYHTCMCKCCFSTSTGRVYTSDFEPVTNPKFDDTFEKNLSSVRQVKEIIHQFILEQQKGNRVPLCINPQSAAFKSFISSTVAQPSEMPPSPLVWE
Assay: biochemical
Design: species or system HEK293/K-562/placenta mixed human extract; Kinobeads chemoproteomic competition binding, quantified by TMT LC-MS/MS, dose response up to 20 uM
OBSERVABLE: pIC50
As a rule, pIC50 stands for the negative log10 of the concentration, concentration in M.

pIC50 reading for "COc1nc(N[C@H]2CC[C@H](NS(=O)(=O)CC(C)C)CC2)nc2[nH]nc(N3CCOC[C@H]3C)c12" : 5.46

====

Target: PRKCI (Homo sapiens, UniProt P41743)
OBSERVABLE: IC50

Measured IC50 for this entry "COc1ccccc1-c1n[nH]c2nc(N[C@H]3CC[C@H](NS(=O)(=O)CCC(F)(F)F)CC3)nc(OC)c12" on PRKCI (Homo sapiens, UniProt P41743): ≥ 20 µM

====

Molecular target: FES (Homo sapiens)
Sequence (P07332 whole entry): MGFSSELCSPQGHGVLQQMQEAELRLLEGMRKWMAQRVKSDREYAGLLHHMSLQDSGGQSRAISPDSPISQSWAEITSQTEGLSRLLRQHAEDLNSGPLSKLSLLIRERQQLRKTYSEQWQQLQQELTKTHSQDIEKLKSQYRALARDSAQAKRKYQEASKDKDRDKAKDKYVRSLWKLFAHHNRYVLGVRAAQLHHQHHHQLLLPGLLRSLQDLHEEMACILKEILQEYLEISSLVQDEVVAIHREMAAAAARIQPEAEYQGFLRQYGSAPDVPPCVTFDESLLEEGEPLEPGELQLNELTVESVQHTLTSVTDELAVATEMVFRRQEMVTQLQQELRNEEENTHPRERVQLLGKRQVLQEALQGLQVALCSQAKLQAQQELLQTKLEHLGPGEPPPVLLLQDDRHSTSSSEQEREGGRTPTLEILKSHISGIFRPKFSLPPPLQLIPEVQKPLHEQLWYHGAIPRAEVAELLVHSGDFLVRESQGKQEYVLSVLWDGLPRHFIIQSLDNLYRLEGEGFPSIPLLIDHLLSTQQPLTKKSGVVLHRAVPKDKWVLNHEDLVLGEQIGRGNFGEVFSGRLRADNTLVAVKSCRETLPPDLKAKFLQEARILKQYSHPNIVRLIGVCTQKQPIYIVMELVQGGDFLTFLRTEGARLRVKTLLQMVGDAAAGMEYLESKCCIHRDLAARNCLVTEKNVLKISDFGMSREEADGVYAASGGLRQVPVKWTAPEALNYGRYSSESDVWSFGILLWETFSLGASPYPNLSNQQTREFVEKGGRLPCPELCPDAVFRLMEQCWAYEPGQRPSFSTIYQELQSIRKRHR
Experiment: biochemical
Design: species or system HEK293/K-562/placenta mixed human extract; Kinobeads chemoproteomic competition binding, quantified by TMT LC-MS/MS, dose response up to 20 uM
OBSERVABLE: IC50

IC50 reading for "COc1ccccc1-c1n[nH]c2nc(N[C@H]3CC[C@H](NS(=O)(=O)CCC(F)(F)F)CC3)nc(OC)c12" : ≥ 20 µM

====

Molecular target: MYLK (Homo sapiens)
Sequence (Q15746 whole entry): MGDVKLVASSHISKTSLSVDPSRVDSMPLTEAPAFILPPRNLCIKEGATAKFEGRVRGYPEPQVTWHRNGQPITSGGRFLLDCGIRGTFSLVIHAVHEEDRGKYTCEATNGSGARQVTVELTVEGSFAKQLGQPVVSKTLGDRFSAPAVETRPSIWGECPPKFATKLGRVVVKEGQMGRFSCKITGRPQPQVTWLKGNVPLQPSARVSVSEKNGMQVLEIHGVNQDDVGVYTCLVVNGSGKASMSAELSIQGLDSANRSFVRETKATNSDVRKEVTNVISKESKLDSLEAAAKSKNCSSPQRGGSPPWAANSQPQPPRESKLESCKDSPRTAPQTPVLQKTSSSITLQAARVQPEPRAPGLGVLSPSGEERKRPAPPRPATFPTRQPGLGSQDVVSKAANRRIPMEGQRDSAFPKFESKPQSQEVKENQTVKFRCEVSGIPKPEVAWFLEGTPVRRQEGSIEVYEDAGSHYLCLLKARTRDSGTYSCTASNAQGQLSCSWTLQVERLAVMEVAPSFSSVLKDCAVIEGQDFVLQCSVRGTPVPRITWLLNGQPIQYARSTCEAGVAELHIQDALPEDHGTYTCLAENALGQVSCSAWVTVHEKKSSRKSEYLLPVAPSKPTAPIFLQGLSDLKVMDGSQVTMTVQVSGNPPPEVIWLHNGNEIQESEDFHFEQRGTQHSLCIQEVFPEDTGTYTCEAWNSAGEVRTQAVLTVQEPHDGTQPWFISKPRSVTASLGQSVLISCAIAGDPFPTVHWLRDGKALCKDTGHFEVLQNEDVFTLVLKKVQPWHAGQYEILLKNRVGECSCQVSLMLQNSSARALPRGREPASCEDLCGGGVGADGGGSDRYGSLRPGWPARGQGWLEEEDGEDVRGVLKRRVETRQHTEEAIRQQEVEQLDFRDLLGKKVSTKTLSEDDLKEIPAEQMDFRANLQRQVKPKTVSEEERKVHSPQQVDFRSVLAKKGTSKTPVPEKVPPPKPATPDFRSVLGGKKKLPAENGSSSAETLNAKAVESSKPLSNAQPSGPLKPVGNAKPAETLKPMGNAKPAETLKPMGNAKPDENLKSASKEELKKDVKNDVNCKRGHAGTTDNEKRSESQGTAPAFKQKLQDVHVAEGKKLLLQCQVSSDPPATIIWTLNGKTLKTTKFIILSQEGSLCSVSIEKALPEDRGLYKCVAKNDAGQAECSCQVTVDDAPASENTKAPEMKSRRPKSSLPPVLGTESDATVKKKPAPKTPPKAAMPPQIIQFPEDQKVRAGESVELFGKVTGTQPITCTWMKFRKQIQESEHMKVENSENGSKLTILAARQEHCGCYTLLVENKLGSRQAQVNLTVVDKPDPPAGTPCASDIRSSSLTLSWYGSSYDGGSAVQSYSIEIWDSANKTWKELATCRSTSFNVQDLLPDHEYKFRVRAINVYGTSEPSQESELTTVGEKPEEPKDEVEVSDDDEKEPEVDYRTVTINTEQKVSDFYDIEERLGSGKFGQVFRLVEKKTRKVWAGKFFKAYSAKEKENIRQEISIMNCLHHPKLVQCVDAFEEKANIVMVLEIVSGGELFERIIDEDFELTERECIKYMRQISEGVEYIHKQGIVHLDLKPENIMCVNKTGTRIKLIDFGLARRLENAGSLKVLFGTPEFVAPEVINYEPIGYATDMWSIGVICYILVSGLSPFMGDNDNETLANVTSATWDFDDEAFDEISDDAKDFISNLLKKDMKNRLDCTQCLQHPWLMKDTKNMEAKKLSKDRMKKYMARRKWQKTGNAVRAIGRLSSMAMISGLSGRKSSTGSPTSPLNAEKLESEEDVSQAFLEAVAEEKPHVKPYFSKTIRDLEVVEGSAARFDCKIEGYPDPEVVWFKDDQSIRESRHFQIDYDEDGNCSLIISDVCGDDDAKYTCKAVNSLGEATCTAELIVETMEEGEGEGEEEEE
Experiment: biochemical
Set-up: species or system HEK293/K-562/placenta mixed human extract; Kinobeads chemoproteomic competition binding, quantified by TMT LC-MS/MS, dose response up to 20 uM
pIC50: −log10 of the molar value.
OBSERVABLE: pIC50

pIC50 reading for "COc1nc(N[C@H]2CC[C@H](NS(=O)(=O)CC(C)C)CC2)nc2[nH]nc(N3CCOC[C@H]3C)c12" : ≤ 4.70

====

Target: MERTK (Homo sapiens, UniProt Q12866)
Experiment: biochemical
Set-up: species or system HEK293/K-562/placenta mixed human extract; Kinobeads chemoproteomic competition binding, quantified by TMT LC-MS/MS, dose response up to 20 uM
OBSERVABLE: IC50

Measured IC50 for this entry COc1nc(N[C@H]2CC[C@H](NS(=O)(=O)CC(C)C)CC2)nc2[nH]nc(N3CCOC[C@H]3C)c12 [compound 39] on MERTK (Homo sapiens, UniProt Q12866): ≥ 20 µM

====

Target: EPHB3 (Homo sapiens, UniProt P54753)
Sequence (P54753 whole entry): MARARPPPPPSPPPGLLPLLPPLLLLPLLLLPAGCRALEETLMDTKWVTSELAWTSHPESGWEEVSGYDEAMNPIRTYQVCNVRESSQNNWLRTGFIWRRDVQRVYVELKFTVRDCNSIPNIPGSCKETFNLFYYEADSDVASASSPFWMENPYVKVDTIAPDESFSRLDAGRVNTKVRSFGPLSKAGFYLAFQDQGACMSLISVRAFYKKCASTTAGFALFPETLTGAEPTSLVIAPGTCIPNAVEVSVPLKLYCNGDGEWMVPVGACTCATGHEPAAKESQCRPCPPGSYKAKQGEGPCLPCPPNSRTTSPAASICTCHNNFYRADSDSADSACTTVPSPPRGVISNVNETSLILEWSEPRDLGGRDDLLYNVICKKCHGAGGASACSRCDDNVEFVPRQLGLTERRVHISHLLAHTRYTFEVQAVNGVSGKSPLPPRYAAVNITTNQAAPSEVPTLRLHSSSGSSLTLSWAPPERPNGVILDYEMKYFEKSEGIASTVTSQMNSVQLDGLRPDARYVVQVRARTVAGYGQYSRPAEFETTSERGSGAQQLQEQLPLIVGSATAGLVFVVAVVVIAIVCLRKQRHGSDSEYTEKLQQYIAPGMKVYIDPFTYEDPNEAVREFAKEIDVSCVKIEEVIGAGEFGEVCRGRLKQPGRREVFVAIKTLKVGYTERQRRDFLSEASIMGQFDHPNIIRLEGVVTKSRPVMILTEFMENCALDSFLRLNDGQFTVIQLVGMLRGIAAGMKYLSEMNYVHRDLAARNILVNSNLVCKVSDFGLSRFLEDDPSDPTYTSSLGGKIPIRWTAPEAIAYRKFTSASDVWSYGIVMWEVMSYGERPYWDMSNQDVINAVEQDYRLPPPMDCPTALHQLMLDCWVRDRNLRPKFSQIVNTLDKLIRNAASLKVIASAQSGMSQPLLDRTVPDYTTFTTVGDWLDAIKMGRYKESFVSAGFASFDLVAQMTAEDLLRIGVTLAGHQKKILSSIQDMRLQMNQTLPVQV
Experiment: biochemical
Parameters: species or system HEK293/K-562/placenta mixed human extract; Kinobeads chemoproteomic competition binding, quantified by TMT LC-MS/MS, dose response up to 20 uM
pIC50: −log10 of the molar value.
OBSERVABLE: pIC50

pIC50 reading for "COc1nc(N[C@H]2CC[C@H](NS(=O)(=O)CC(C)C)CC2)nc2[nH]nc(N3CCOC[C@H]3C)c12" : ≤ 4.70

====

Biological target: MAPK7 (Homo sapiens)
Sequence (Q13164 whole entry): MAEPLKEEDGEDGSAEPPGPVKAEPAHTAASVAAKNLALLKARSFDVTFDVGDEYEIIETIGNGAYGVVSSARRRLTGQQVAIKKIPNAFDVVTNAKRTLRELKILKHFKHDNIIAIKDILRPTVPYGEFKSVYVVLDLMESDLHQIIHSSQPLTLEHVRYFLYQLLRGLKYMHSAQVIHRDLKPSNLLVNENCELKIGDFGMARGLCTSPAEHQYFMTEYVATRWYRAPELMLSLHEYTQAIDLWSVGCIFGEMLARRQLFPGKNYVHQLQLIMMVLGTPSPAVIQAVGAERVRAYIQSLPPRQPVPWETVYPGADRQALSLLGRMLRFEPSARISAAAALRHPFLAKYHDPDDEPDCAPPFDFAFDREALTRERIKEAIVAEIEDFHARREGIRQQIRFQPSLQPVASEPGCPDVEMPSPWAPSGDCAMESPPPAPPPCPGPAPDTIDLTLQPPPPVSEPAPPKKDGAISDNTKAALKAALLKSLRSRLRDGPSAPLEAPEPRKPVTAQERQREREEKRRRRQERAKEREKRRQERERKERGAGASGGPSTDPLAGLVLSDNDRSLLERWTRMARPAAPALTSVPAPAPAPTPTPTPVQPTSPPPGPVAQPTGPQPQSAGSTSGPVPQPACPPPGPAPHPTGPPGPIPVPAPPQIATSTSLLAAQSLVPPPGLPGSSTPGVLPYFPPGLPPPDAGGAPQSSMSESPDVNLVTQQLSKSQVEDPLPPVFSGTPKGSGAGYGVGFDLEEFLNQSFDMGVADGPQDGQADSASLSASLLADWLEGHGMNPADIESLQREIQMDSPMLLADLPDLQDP
Assay: biochemical
Design: species or system HEK293/K-562/placenta mixed human extract; Kinobeads chemoproteomic competition binding, quantified by TMT LC-MS/MS, dose response up to 20 uM
OBSERVABLE: IC50

IC50 reading for "COc1nc(N[C@H]2CC[C@H](NS(=O)(=O)CC(C)C)CC2)nc2[nH]nc(N3CCOC[C@H]3C)c12" : ≥ 20 µM

====

Target: CHEK2 (Homo sapiens)
Sequence (O96017 whole entry): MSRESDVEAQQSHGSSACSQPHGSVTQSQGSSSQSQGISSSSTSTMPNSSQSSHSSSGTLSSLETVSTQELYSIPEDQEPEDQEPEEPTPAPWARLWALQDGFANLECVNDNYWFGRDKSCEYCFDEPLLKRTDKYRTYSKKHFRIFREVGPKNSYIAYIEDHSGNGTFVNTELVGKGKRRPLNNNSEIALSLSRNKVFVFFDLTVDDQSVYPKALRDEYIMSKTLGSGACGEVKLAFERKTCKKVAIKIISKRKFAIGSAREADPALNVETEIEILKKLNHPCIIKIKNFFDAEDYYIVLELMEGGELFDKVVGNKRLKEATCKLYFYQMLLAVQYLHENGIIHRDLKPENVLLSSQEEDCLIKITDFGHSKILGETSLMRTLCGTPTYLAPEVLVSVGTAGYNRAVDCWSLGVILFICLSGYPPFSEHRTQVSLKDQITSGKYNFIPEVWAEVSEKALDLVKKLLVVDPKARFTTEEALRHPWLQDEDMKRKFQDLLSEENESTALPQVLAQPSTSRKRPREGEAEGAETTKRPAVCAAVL
Assay: biochemical
Design: species or system HEK293/K-562/placenta mixed human extract; Kinobeads chemoproteomic competition binding, quantified by TMT LC-MS/MS, dose response up to 20 uM
OBSERVABLE: IC50

IC50 reading for "COc1ccccc1-c1n[nH]c2nc(N[C@H]3CC[C@H](NS(=O)(=O)CCC(F)(F)F)CC3)nc(OC)c12" : ≥ 20 µM

====

Target: TP53RK (Homo sapiens)
Test: biochemical
Design: species or system HEK293/K-562/placenta mixed human extract; Kinobeads chemoproteomic competition binding, quantified by TMT LC-MS/MS, dose response up to 20 uM
OBSERVABLE: IC50

IC50 reading for "COc1ccccc1-c1n[nH]c2nc(N[C@H]3CC[C@H](NS(=O)(=O)CCC(F)(F)F)CC3)nc(OC)c12" : ≥ 20 µM

====

Biological target: KIT (Homo sapiens, UniProt P10721)
Experiment: biochemical
Parameters: species or system HEK293/K-562/placenta mixed human extract; Kinobeads chemoproteomic competition binding, quantified by TMT LC-MS/MS, dose response up to 20 uM
OBSERVABLE: IC50

IC50 reading for COc1nc(N[C@H]2CC[C@H](NS(=O)(=O)CC(C)C)CC2)nc2[nH]nc(N3CCOC[C@H]3C)c12 [compound 39] : ≥ 20 µM

====

Molecular target: MAP3K7 (Homo sapiens)
Assay: biochemical
Set-up: species or system HEK293/K-562/placenta mixed human extract; Kinobeads chemoproteomic competition binding, quantified by TMT LC-MS/MS, dose response up to 20 uM
pIC50: −log10 of the molar value.
OBSERVABLE: pIC50

pIC50 reading for "COc1ccccc1-c1n[nH]c2nc(N[C@H]3CC[C@H](NS(=O)(=O)CCC(F)(F)F)CC3)nc(OC)c12" : ≤ 4.70

====

Target: STK39 (Homo sapiens, UniProt Q9UEW8)
Test: biochemical
Set-up: species or system HEK293/K-562/placenta mixed human extract; Kinobeads chemoproteomic competition binding, quantified by TMT LC-MS/MS, dose response up to 20 uM
OBSERVABLE: IC50

IC50 reading for COc1ccccc1-c1n[nH]c2nc(N[C@H]3CC[C@H](NS(=O)(=O)CCC(F)(F)F)CC3)nc(OC)c12 [compound 31] : ≥ 20 µM

====

Target: MARK2 (Homo sapiens)
Experiment: biochemical
Design: species or system HEK293/K-562/placenta mixed human extract; Kinobeads chemoproteomic competition binding, quantified by TMT LC-MS/MS, dose response up to 20 uM
pIC50: −log10 of the molar value.
OBSERVABLE: pIC50

pIC50 reading for "COc1nc(N[C@H]2CC[C@H](NS(=O)(=O)CC(C)C)CC2)nc2[nH]nc(N3CCOC[C@H]3C)c12" : ≤ 4.70

====

Biological target: STK35 (Homo sapiens, UniProt Q8TDR2)
Test: biochemical
Parameters: species or system HEK293/K-562/placenta mixed human extract; Kinobeads chemoproteomic competition binding, quantified by TMT LC-MS/MS, dose response up to 20 uM
OBSERVABLE: IC50

IC50 reading for COc1nc(N[C@H]2CC[C@H](NS(=O)(=O)CC(C)C)CC2)nc2[nH]nc(N3CCOC[C@H]3C)c12 [compound 39] : ≥ 20 µM

====

Biological target: PRKAG1 (Homo sapiens)
Test: biochemical
Set-up: species or system HEK293/K-562/placenta mixed human extract; Kinobeads chemoproteomic competition binding, quantified by TMT LC-MS/MS, dose response up to 20 uM
pIC50: −log10 of the molar value.
OBSERVABLE: pIC50

Measured pIC50 for this entry "COc1nc(N[C@H]2CC[C@H](NS(=O)(=O)CC(C)C)CC2)nc2[nH]nc(N3CCOC[C@H]3C)c12" on PRKAG1 (Homo sapiens): ≤ 4.70

====

Molecular target: CYP3A4 (Homo sapiens, UniProt P08684)
Experiment: midazolam marker-substrate inhibition assay, LC-MS/MS
Assay type: biochemical
OBSERVABLE: IC50

IC50 reading for "COc1nc(N[C@H]2CC[C@H](NS(=O)(=O)CC(C)C)CC2)nc2[nH]nc(N3CCOC[C@H]3C)c12" : > 39.8 µM

====

Target: RPS6KA6 (Homo sapiens, UniProt Q9UK32)
Assay: biochemical
Parameters: species or system HEK293/K-562/placenta mixed human extract; Kinobeads chemoproteomic competition binding, quantified by TMT LC-MS/MS, dose response up to 20 uM
OBSERVABLE: IC50

IC50 reading for "COc1nc(N[C@H]2CC[C@H](NS(=O)(=O)CC(C)C)CC2)nc2[nH]nc(N3CCOC[C@H]3C)c12" : ≥ 20 µM
